Origin of measurements: the RNAGym collection of RNA variant scans (doi:10.1126/science.aae0568)

B1: tRNA (parent)
chain: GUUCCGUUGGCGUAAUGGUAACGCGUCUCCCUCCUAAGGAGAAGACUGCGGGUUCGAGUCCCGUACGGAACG

variants of: B1; experiment: yeast fitness relative to wild type (ratio to wild type); higher = fitter; tRNA-Arg(CCU), competitive growth, 37 C, YPD
Fewer inactive variants are shown than the library holds.
recorded-metric: yeast fitness
Please reply with the value in numeric form only.

Here is how some variants turned out for yeast fitness.
var	yeast fitness
C4G G25C A45C C46A	0.619
C30G C33U C49U	0.556
C24U A36G U47A	0.529
U7G C22A	0.653
C22G A69G	0.952

Lookup: // yeast fitness lookup, key: U2G C46A C66U
Found: 0.584

Lookup: // yeast fitness lookup, key: U8C C24U A45U
Found: 0.608

Lookup: // yeast fitness lookup, key: C31G C55G
Found: 0.592

Lookup: // yeast fitness lookup, key: A37C C55G
Found: 0.607

Lookup: // yeast fitness lookup, key: C34G C49U A65C
Found: 0.532
